# targetOfAssay: Sm.5HTR (Schistosoma mansoni)
# Type: cell-based
# assayConditions: FIG. 10A
parameterMeasured: agonist efficacy at Sm.5HTR, in words

compound	targetOfAssay	observedResult
CN1C[C@H](C(=O)N[C@]2(C)O[C@@]3(O)[C@@H]4CCCN4C(=O)[C@H](Cc4ccccc4)N3C2=O)C=C2c3cccc4[nH]cc(c34)C[C@H]21	Sm.5HTR (Schistosoma mansoni)	partial agonism
CN1C[C@H](C(=O)N[C@]2(C)O[C@@]3(O)[C@@H]4CCCN4C(=O)[C@H](Cc4ccccc4)N3C2=O)C[C@@H]2c3cccc4[nH]cc(c34)C[C@H]21 [dihydroergotamine]	Sm.5HTR (Schistosoma mansoni)	partial agonism
CCN(CC)C(=O)[C@@H]1C=C2c3cccc4[nH]cc(c34)C[C@H]2N(C)C1 [LSD, lysergic acid diethylamide]	Sm.5HTR (Schistosoma mansoni)	no efficacy
CN1C[C@H](CNC(=O)OCc2ccccc2)C[C@@H]2c3cccc4c3c(cn4C)C[C@H]21	Sm.5HTR (Schistosoma mansoni)	no efficacy

====

# targetOfAssay: Sm.5HTR (Schistosoma mansoni)
# Format: cell-based
# assayConditions: read-out: IC50, antagonism of 5-HT evoked cAMP generation at Sm.5HTR; 5-HT at EC80; F22 sensor, IBMX
parameterMeasured: IC50

>>> df
                                   compound  observedresult
0  COc1cc2c(cc1OC)[C@@H]1Cc3ccc(OC)c(OC)c3CN1CC2 [rotundine]        0.701 µM

====

# Tested on: adult S. mansoni
# protocolDetails: Movement assay of cultured adult S. mansoni (Example 2)
# Type: cell-based
# assayConditions: Schistosoma mansoni, read-out: IC50, inhibition of serotonin evoked schistosome movement
Catalogue of IC50 readings, one per entry.
parameterMeasured: IC50 (nM)

                                   compound  parametermeasured  units  observedresult
0  CC(C)C[C@H]1C(=O)N2CCC[C@H]2[C@]2(O)O[C@](NC(=O)[C@@H]3C=C4c5cccc6[nH]c(Br)c(c56)C[C@H]4N(C)C3)(C(C)C)C(=O)N12               IC50     nM             251
1  CCN(CC)C(=O)[C@@H]1C=C2c3cccc4[nH]c(Br)c(c34)C[C@H]2N(C)C1 [BOL-148, 2-bromo-lysergic acid diethylamide]               IC50     nM              29

====

Catalogue of EC50 readings, one per entry.
# Test system: adult S. mansoni
# protocolDetails: Movement assay of cultured adult S. mansoni (Example 2)
# Type: cell-based
# assayConditions: Schistosoma mansoni; FIG. 19B; read-out: EC50, stimulation of adult schistosome movement
parameterMeasured: EC50 (µM)

>>> print(df.to_string())
                                   compound  parametermeasured  observedresult
0                    NCCc1c[nH]c2ccc(O)cc12               EC50              52
1  CN1C[C@H](C(=O)N[C@]2(C)O[C@@]3(O)[C@@H]4CCCN4C(=O)[C@H](Cc4ccccc4)N3C2=O)C=C2c3cccc4[nH]cc(c34)C[C@H]21               EC50            0.01

====

# targetOfAssay: Sm.5HTRL (Schistosoma mansoni, UniProt A0A173FEI8)
# Sequence (A0A173FEI8 entry or part of it): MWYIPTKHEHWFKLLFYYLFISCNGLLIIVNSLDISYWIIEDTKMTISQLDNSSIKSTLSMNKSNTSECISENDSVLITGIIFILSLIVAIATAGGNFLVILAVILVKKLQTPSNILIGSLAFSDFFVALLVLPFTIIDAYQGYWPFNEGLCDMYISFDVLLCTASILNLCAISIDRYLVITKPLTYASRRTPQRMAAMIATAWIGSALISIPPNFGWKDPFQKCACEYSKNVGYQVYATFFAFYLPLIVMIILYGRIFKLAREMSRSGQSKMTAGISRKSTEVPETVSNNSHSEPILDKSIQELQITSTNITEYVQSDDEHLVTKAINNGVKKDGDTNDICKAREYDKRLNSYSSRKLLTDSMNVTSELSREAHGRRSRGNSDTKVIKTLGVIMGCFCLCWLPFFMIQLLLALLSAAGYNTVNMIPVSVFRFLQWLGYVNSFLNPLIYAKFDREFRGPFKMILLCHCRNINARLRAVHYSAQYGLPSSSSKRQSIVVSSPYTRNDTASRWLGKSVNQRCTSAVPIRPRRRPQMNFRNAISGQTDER
# protocolDetails: GloSensor cAMP assay, HEK293 cells transiently transfected with Sm.5HTRL
# assayConditions: 5-HT dose response, FIG. 2H; read-out: EC50, activation of Sm.5HTRL
# Description: HEK293 cells (ATCC CRL-1573.3) were cultured in DMEM supplemented with 10% fetal bovine serum (FBS), penicillin (100 units/mL), streptomycin (100 μg/mL), and L-glutamine (290 μg/mL). Cells were transiently transfected (ViaFect, Promega) as per the manufacturer's protocol at a density of 2×10^6 cells per T-25 cell-culture flask. […] Epitope tagged constructs were used to verify expression, and untagged constructs used for all luminescence assays. […]
parameterMeasured: EC50 (nM)

                                   compound  parametermeasured  observedresult
0  NCCc1c[nH]c2ccc(O)cc12 [5-HT, Serotonin]               EC50             200

====

# targetOfAssay: Sm.5HTR (Schistosoma mansoni, UniProt G4V5G4)
# Sequence (G4V5G4 entry or part of it): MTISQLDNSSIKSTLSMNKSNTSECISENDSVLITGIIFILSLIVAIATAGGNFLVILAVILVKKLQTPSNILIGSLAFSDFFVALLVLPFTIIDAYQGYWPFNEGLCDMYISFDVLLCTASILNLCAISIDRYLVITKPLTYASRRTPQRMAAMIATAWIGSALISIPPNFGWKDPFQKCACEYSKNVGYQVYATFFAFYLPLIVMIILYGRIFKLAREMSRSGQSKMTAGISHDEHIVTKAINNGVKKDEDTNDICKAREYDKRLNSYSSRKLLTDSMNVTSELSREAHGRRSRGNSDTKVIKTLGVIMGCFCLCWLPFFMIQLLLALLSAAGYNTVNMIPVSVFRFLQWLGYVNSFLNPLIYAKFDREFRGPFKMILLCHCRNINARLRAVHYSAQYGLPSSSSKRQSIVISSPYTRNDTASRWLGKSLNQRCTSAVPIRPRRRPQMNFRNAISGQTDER
# assayConditions: FIG. 10A; read-out: EC50, agonist activity at Sm.5HTR
pEC50: −log10 of the molar value.
Catalogue of pEC50 readings, one per entry.

compound	pEC50
CN1C[C@H](C(=O)N[C@]2(C)O[C@@]3(O)[C@@H]4CCCN4C(=O)[C@H](Cc4ccccc4)N3C2=O)C[C@@H]2c3cccc4[nH]cc(c34)C[C@H]21 [dihydroergotamine]	6.50
CN1C[C@H](C(=O)N[C@]2(C)O[C@@]3(O)[C@@H]4CCCN4C(=O)[C@H](Cc4ccccc4)N3C2=O)C=C2c3cccc4[nH]cc(c34)C[C@H]21 [ergotamine]	6.63

====

# targetOfAssay: Sm.5HTR (Schistosoma mansoni, UniProt A0A173FEI8)
# Sequence (A0A173FEI8 entry or part of it): as the sequence (A0A173FEI8 entry or part of it) above
# protocolDetails: cell-based
parameterMeasured: EC50

                                   compound  parametermeasured  observedresult
0  CCN(CC)C(=O)[C@@H]1C=C2c3cccc4[nH]cc(c34)C[C@H]2N(C)C1 [LSD, lysergic acid diethylamide]               EC50          250 nM
1  CN1C[C@H](C(=O)N[C@]2(C)O[C@@]3(O)[C@@H]4CCCN4C(=O)[C@H](Cc4ccccc4)N3C2=O)C=C2c3cccc4[nH]cc(c34)C[C@H]21 [ergotamine]               EC50           43 nM

FYI, the data here is from patent US10426772B2.
